Exercise: for every item that follows, state its recorded IC50.
test system: MCF7; assay: Cytotoxicity against human MCF7 cells after 48 hrs by SRB assay; assay type: functional, cell-based
Write the number in nM without appending the unit.

## Task Identify measured IC50 associated with c1ccc(CSc2nnc(-c3ccc(Nc4ccccc4-c4nnc(SCc5ccccc5)o4)cc3)o2)cc1
## Result 730

## Task Identify measured IC50 associated with Sc1nnc(-c2ccc(Nc3ccccc3-c3nnc(S)o3)cc2)o1
## Result 2000

## Task Identify measured IC50 associated with CCn1c(S)nnc1-c1ccc(Nc2ccccc2-c2nnc(S)n2CC)cc1
## Result 2380

## Task Identify measured IC50 associated with CN(C)c1ccc(/C=N/NC(=O)c2ccc(Nc3ccccc3C(=O)N/N=C/c3ccc(N(C)C)cc3)cc2)cc1
## Result 1230

## Task Identify measured IC50 associated with CCNc1nnc(-c2ccc(Nc3ccccc3-c3nnc(NCC)s3)cc2)s1
## Result 940

## Task Identify measured IC50 associated with COc1ccc(/C=N/NC(=O)c2ccc(Nc3ccccc3C(=O)N/N=C/c3ccc(OC)c(OC)c3)cc2)cc1OC
## Result 810

## Task Identify measured IC50 associated with C=CCSc1nnc(-c2ccc(Nc3ccccc3-c3nnc(SCC=C)o3)cc2)o1
## Result 1050
